Values from PubChem BioAssay (NCI)

- Tested on: HL-60(TB) leukemia
- ASSAY COMMENT: NCI-60 one-dose screen, 48 h
- PROTOCOL CONDITIONS: 10 µM unless noted
Compounds without any hit were thinned out: in the full panel of roughly 83,000, 20% have a hit. Activity calls are given as the source filed them. Rule for the calls: active = growth percent below 10; inactive = the rest.
Hi! Could you answer with just one of these? Yes (active), No (inactive)

Use these answered entries as a reference point.
COMPOUND: C=C(C)Cn1c(SCC(=O)c2cccs2)nc2sc3c(c2c1=O)CCCC3
LABEL VALUE: No
--
COMPOUND: O=C(CCl)n1nnnc1Cc1ccccc1
LABEL VALUE: No
--
COMPOUND: COc1cc(C)cc2oc3oc(=O)c(-c4csc(-c5cc6ccccc6oc5=O)n4)cc3c(=O)c12
LABEL VALUE: No
--
COMPOUND: COc1cc2c(cc1-c1c(C)noc1C)ncc1nc(C3CCOCC3)n(C3CCC(OC(F)F)CC3)c12 (stereo unspecified)
LABEL VALUE: Yes
--
COMPOUND: CCN(CC)CCOC(=O)c1cc(OCc2ccccc2)c(OCc2ccccc2)c(OCc2ccccc2)c1
LABEL VALUE: No
--
COMPOUND: C=NNc1ccccc1
LABEL VALUE: No
--
COMPOUND: COc1cc(C(=O)n2nc(N)c3c(C)cc(C)nc32)cc(OC)c1OC
LABEL VALUE: No
--
COMPOUND: NNc1ccc(S(N)(=O)=O)cc1
LABEL VALUE: No

[in] For Cc1ccc(-c2n[nH]c(=O)c3noc(-c4ccc(C)cc4)c23)cc1 , what call appears in the results of this test?
[out] Yes

[in] For CC(C)=CC(=O)OC(=O)C=C(C)C , what call appears in the results of this test?
[out] No

[in] For c1ccc(-c2n(Cc3ccc4ccccc4c3)cc[n+]2Cc2ccc3ccccc3c2)cc1 , what call appears in the results of this test?
[out] Yes

[in] For Cc1ccc(Cl)cc1NC(=O)CCl , what call appears in the results of this test?
[out] No

[in] For COc1ccc2c(c1)c(-c1nc(-c3c[nH]c4ncccc34)cs1)cn2CCCN1CCOCC1 , what call appears in the results of this test?
[out] No

[in] For COc1ccc2c(c1)C(=O)/C(=C/c1ccc([N+](=O)[O-])s1)O2 , what call appears in the results of this test?
[out] Yes

[in] For COc1ccc(C2Nc3c(c(C(C)(C)C)nn3-c3ccccc3)C(=O)CS2)cc1 (stereo unspecified) , what call appears in the results of this test?
[out] No

[in] For COc1cc2c(cc1O)CCc1cc(O)cc(OC)c1-2 , what call appears in the results of this test?
[out] No

[in] For CN1[C@@H]2CC[C@H]1/C(=C\c1ccccc1)C1=C2[C@@H](c2ccccc2)C(C#N)=C(N)O1 , what call appears in the results of this test?
[out] No
